B1: KCNAB2 (parent)
chain: SSIIHEIDSILGNKPYSKKDYRS

Variants of: B1
Experiment: protein stability index of a GFP-peptide fusion (GPS, HEK-293T) (PSI 1-6); higher = more stable;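 note: lentivirally expressed fusions sorted by FACS into six bins by GFP to DsRed ratio, PSI derived from sequencing read proportions per bin multiplied by bin number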
Settings: c terminus: native
# protein stability index listing for each entry below
// no unit string in output, number only

Some variants with known protein stability index results, for comparison:
# Mutant label, protein stability index
records = [
    ("R22L", 4.01),
    ("I10E", 3.45),
    ("S9W", 2.9),
    ("I7F", 2.71),
]

Identify protein stability index associated with the variant "P15G"
3.36

Identify protein stability index associated with the variant "S1G"
3.04

Identify protein stability index associated with the variant "L11I"
3.42

Identify protein stability index associated with the variant "R22S"
4.01

Identify protein stability index associated with the variant "K14W"
1.7
